tested on: Hs-578T; experiment: NCI tumour cell line growth inhibition, 48 h
Activity calls are given as the source filed them. No stated cut-off is given here; in the data, active = GI50 up to about 1.1 µM and inactive = higher.
parameter: GI50

Record "CN(CCc1ccc(Cl)c(Cl)c1)CCN(C)CCN1CCCC1" ; system Hs-578T; GI50 = 17.5 µM (inactive)

Record for "C[Si](C)(c1ccc(C(=O)O)cc1)c1ccc(C(=O)O)cc1" under target or system Hs-578T: GI50 reported as > 100 µM (inactive)

// assay Hs-578T, entry "COc1ccc(C(=O)/C=C/c2ccc(OCC(=N)N)cc2)cc1" , GI50 value = 16.4 µM (inactive)

Observed GI50 on Hs-578T, entry COc1cc(C(c2ccc3c(c2)OCO3)N2C(=O)CCC2C(=O)O)cc(OC)c1OC (stereo unspecified) , equals > 100 µM (inactive)

The compound C=CCC(CNC(=O)OCc1ccccc1)OC(=O)OCc1ccccc1 (stereo unspecified) on Hs-578T: GI50 was > 100 µM (inactive)

Considering "O=C1NC(=O)C(c2c[nH]c3cc(Br)ccc23)=C1c1cnc[nH]1" , its GI50 with Hs-578T was recorded as 52.7 µM (inactive)

* * *

test system: NCI-H460; assay: NCI tumour cell line growth inhibition, 48 h
Active and inactive are the calls of the source. No stated cut-off is given here; in the data, active = GI50 up to about 1.1 µM and inactive = higher.
parameter: GI50

Worked cases, GI50 given:
| compound | GI50 |
| --- | --- |
| CCc1ccccc1-n1c2nc(=O)n(C)c(=O)c-2nc2ccccc21 | 4.55 µM (inactive) |
| CC1(C)C2CC1C(/C=N\OCC(=O)O)=CC2=O (centres undefined) | > 100 µM (inactive) |
| O=C(NCCCN1CCN(CCCNC(=O)c2cnc3ccccc3n2)CC1)c1cnc2ccccc2n1 | > 100 µM (inactive) |
| O=c1cc(-c2ccccc2)[nH]c2c(F)ccc(F)c12 | 32.5 µM (inactive) |
| CCn1c2ccc(O)c(C(=O)OC)c2c2cc3ccccc3c(O)c21 | 14.2 µM (inactive) |
| c1ccc2c(c1)Nc1ccccc1[P+]21c2ccccc2Nc2ccccc21 | 0.146 µM (active) |
| CCOC(=O)n1cncc1CC(NC(=O)Cc1c(C(=O)C=C(C)C)[nH]c2ccccc12)C(=O)OC (centres undefined) | 22.3 µM (inactive) |
| N#CC1C[C@@H]2CC3(CCC2CN1C(=O)c1ccccc1)OCCO3 (some centres undefined) | > 100 µM (inactive) |

With those in mind, consider the next compound.
Record summary for "Cn1c2ccccc2n2c3ncccc3c(=S)c(C#N)c12" : reported GI50 = 90.4 µM (inactive)

* * *

system: UACC-257; assay: NCI tumour cell line growth inhibition, 48 h
Activity calls are given as the source filed them. No stated cut-off is given here; in the data, active = GI50 up to about 1.1 µM and inactive = higher.
Pick one: active, inactive

Study these solved cases before continuing.
| compound | cat |
| --- | --- |
| C[C@]12CC[C@H]3[C@@H](CC=C4C[C@@H](N5CCCC5)CC[C@@]43C)[C@@H]1C/C(=C\c1ccc([N+](=O)[O-])cc1)[C@@H]2O | inactive |
| Cc1ccc(C2=C(c3ccccc3)C(O)(c3ccc(C)cc3)C(c3ccccc3)=C2c2ccc(C)cc2)cc1 | inactive |
| CC(NNC(=O)c1ccncc1)c1cccc(C(F)(F)F)c1 (configuration not stated) | inactive |
| Cc1cc(N(CCC#N)CCC#N)ccc1/C=C1N=C(/C=C\c2ccccc2)N(c2ccc(Cl)cc2)C\1=O | inactive |
| O=c1c2c3c(sc2nc2n1N=CN(c1ccc(F)cc1)C2)CCCC3 | inactive |

Test call for this compound, please: CN1C[C@@H]2CCCN2P1Oc1cccc2cccnc12 (some centres not stated)
inactive
